# assay: Pharmacokinetics in rat (i.v.)
# Type: in vivo, Male Sprague-Dawley rats
# test_parameters: male, Sprague-Dawley, plasma, iv 1 mg/kg, 60% PEG400 in water
Listing of recorded half-life by entry.

{"compound": "CC(c1cc(Oc2c(Cl)cc(-n3nc(N)c(=O)[nH]c3=O)cc2Cl)n[nH]c1=O)C1CC1 (single isomer, unassigned) [Compound 1a]", "observed_property": "half-life", "endpoint_value": "5.25 h"}

Okay, now this compound:
Could you please provide reported half-life for C#Cc1nn(-c2cc(Cl)c(Oc3cc(C(C)C)c(=O)[nH]n3)c(Cl)c2)c(=O)[nH]c1=O [Compound 2, reference compound] ? Thanks!
1.31 h

The reported measurements were obtained from patent US12630537B2.
